- experimental.system: hmGluR1 receptor (Homo sapiens, UniProt Q13255)
- Construct: expressed in transfected cells
- Sequence (Q13255 19-1194): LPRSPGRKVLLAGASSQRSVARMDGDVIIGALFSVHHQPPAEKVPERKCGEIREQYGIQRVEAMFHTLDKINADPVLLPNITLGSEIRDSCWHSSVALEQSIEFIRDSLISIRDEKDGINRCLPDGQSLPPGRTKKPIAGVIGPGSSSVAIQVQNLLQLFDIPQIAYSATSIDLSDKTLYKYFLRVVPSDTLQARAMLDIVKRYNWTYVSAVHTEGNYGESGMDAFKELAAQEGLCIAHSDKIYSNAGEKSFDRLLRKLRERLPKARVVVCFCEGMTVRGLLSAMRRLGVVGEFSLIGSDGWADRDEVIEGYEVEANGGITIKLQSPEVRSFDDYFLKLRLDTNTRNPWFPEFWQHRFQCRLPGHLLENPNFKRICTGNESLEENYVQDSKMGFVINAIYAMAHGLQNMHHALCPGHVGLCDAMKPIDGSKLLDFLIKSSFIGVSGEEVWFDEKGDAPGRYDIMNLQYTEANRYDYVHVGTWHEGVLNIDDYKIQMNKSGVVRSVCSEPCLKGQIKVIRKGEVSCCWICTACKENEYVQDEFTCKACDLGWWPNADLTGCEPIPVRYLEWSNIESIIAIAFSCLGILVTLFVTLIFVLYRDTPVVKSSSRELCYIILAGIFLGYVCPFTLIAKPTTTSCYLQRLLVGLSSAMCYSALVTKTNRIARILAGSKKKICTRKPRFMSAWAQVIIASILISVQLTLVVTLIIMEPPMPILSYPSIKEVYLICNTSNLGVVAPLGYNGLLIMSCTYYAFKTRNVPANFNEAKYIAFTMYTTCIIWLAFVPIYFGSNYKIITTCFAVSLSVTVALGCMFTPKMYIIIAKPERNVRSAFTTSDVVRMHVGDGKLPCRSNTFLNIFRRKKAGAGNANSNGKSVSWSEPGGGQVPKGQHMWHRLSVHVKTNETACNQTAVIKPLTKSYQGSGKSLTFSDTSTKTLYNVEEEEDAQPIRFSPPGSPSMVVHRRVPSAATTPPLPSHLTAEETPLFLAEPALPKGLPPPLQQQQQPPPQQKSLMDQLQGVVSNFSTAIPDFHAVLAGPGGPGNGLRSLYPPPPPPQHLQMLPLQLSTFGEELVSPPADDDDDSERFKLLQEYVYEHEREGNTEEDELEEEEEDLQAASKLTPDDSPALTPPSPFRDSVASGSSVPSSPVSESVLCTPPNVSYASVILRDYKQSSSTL
- experimental.protocol: IC50 determination: intracellular calcium mobilization (FLIPR) upon Quisqualate stimulation in CHO cells stably expressing hmGluR1
- Assay type: cell-based
- study.conditions: against Quisqualate 1 μM (EC80), FLIPR calcium mobilization, read-out: IC50 Class
pIC50: −log10 of the molar value.
The molecules listed here are annotated with their pIC50.

In the examples that follow, each entry is paired with its recorded pIC50.
{"molecule": "CN(c1ncnc2sc3c(=O)n(-c4ccc(Cl)cc4)cnc3c12)C1CC1 [95DU]", "pIC50": "> 7.30"}
{"molecule": "COc1ccc(Nc2ncnc3sc4c(=O)n(-c5ccc(C)cc5)cnc4c23)cc1 [95GJ]", "pIC50": "6.82 to 7.30"}
{"molecule": "C#CCNc1ncnc2sc3c(=O)n(-c4ccc5ncsc5c4)cnc3c12 [95EM]", "pIC50": "6.00 to 6.82"}
{"molecule": "Cc1ccc(-n2cnc3c(sc4nc(S)nc(N)c43)c2=O)cc1 [71F]", "pIC50": "> 7.30"}
{"molecule": "O=c1c2sc3nccc(N4CCCCC4)c3c2ncn1-c1ccc(Cl)cc1 [28GH]", "pIC50": "< 6.00"}

Next molecule, pIC50 to be filled in.
Request: Bench note: what pIC50 did CN(N)c1ccnc2sc3c(=O)n(-c4ccc(Cl)cc4)cnc3c12 [28DM] show?
Result: < 6.00

---

- experimental.system: hmGluR1 receptor (Homo sapiens)
- Construct: expressed in transfected cells
- experimental.protocol: IC50 determination: intracellular calcium mobilization (FLIPR) upon Quisqualate stimulation in CHO cells stably expressing hmGluR1
- Assay type: cell-based
- study.conditions: against Quisqualate 1 μM (EC80), FLIPR calcium mobilization, read-out: IC50 Class
The molecules listed here are annotated with their IC50.

In the examples that follow, each entry is paired with its recorded IC50.
{"molecule": "Cc1ccc(-n2cnc3c(sc4nccc(N5CCOCC5)c43)c2=O)cc1 [28CW]", "experimental.system": "hmGluR1 receptor (Homo sapiens)", "IC50": "> 1000 nM"}
{"molecule": "O=c1c2sc3nccc(NC4CC4)c3c2ncn1-c1ccc(O)cc1 [28HS]", "experimental.system": "hmGluR1 receptor (Homo sapiens)", "IC50": "< 50 nM"}
{"molecule": "CC(O)c1ccnc2sc3c(=O)n(-c4ccc(Cl)cc4)cnc3c12 (stereo not drawn)", "experimental.system": "hmGluR1 receptor (Homo sapiens)", "IC50": "50 to 150 nM"}
{"molecule": "O=c1c2sc3nccc(NC4CC4)c3c2ncn1-c1cccc(F)c1 [28CN]", "experimental.system": "hmGluR1 receptor (Homo sapiens)", "IC50": "< 50 nM"}
{"molecule": "O=c1c2sc3ncnc(Nc4ccccc4)c3c2ncn1-c1ccc2scnc2c1 [95GE]", "experimental.system": "hmGluR1 receptor (Homo sapiens)", "IC50": "> 1000 nM"}
{"molecule": "C=CCOc1ccnc2sc3c(=O)n(-c4ccc(Cl)cc4)cnc3c12 [66F]", "experimental.system": "hmGluR1 receptor (Homo sapiens)", "IC50": "< 50 nM"}

Request: Bench note: what IC50 did COc1ccnc2sc3c(=O)n(-c4ccncc4)cnc3c12 [161C] show?
Result: > 1000 nM

Request: Bench note: what IC50 did `Cc1ccc(-n2cnc3c(sc4ncc(Br)c(Cl)c43)c2=O)cc1` show?
Result: > 1000 nM

Request: Bench note: what IC50 did `COc1ccc(-n2cnc3c(sc4nccc(Cl)c43)c2=O)cc1` show?
Result: 150 to 1000 nM
